target_entity: Human M4 (Homo sapiens, UniProt P08173)
Construct: expressed in transfected cells; host or cells: CHO-K1 (ATCC), co-transfected with chimeric G protein Gqi5
Sequence (P08173 1-479): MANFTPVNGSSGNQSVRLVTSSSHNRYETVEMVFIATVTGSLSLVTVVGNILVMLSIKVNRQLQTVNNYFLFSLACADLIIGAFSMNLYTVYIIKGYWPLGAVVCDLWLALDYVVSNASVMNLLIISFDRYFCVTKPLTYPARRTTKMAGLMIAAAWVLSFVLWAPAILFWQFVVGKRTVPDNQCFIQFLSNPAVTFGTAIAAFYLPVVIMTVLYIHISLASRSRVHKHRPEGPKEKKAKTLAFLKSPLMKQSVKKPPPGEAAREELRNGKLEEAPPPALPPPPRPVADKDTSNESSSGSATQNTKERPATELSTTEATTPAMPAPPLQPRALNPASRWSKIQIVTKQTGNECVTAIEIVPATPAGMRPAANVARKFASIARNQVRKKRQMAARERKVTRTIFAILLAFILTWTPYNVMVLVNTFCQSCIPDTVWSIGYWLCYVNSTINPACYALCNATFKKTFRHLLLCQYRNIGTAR
protocol_notes: mAChR M4 cell-based functional assay (calcium flux, antagonism of EC80 acetylcholine response)
test_conditions: M4/Gqi5/CHO-K1 cells; % ACh maximum at 30 μM; read-out: Human M4 Emin (% ACh maximum at 30 μM)
test_readout: remaining activity at 30 µM (%)

O=C(Nc1cc(F)c(F)c(-c2ccc(N[C@H]3C[C@@H]4CN(CC5CCOCC5)C[C@@H]4C3)nn2)c1)C1(C(F)(F)F)CC1; 3

(a) [2H]C([2H])(C1CCOCC1)N1C[C@H]2C[C@H](Nc3ccc(-c4cc(F)cc(C(=O)NC)c4)nn3)C[C@H]2C1
(b) [2H]C([2H])([C@H]1CCCOC1)N1C[C@H]2C[C@H](Nc3ccc(-c4cccc(C(=O)NC)c4)nn3)C[C@H]2C1
Ask: Which record would sort first by descending remaining activity at 30 µM, a or b ? Give the chosen item's label as your response.
Result: b

###

target_entity: Human M4 (Homo sapiens, UniProt P08173)
Construct: expressed in transfected cells; host or cells: CHO-K1 (ATCC), co-transfected with chimeric G protein Gqi5
protocol_notes: mAChR M4 cell-based functional assay (calcium flux, antagonism of EC80 acetylcholine response)
test_conditions: M4/Gqi5/CHO-K1 cells; % ACh maximum at 30 μM; read-out: Human M4 Emin (% ACh maximum at 30 μM)
test_readout: remaining activity at 30 µM (%)

Please review the entries below; each comes with its answer.
[2H]C([2H])([2H])NC(=O)c1ccccc1-c1ccc(N[C@H]2C[C@@H]3CN(C([2H])([2H])C4CCOCC4)C[C@@H]3C2)nn1 [Compound A53]; 4
[2H]C([2H])(C1CCOCC1)N1C[C@H]2C[C@H](Nc3ccc(-c4ccccc4C(=O)NC)nn3)C[C@H]2C1 [Compound A48]; 4
CC(=O)Nc1ccc(-c2ccc(N[C@H]3C[C@@H]4CN(CC5(C)COC5)C[C@@H]4C3)nn2)cc1 [Compound A6]; 16
CC(=O)Nc1ccc(-c2ccc(N[C@H]3C[C@@H]4CN(Cc5ccc(F)cc5)C[C@@H]4C3)nn2)cc1 [Compound A3]; 2

(I) [2H]C([2H])([C@H]1CCCCO1)N1C[C@H]2C[C@H](Nc3ccc(-c4cc(F)cc(C(=O)NC)c4)nn3)C[C@H]2C1 [Compound A87]
(II) CC(=O)Nc1ccc(-c2ccc(N[C@H]3C[C@@H]4CN(Cc5cc(C)n(C)n5)C[C@@H]4C3)nn2)cc1 [Compound A5]
Ask: Determine, for I and II , which has the greater value of remaining activity at 30 µM. Kindly give the label for the entry you pick.
Result: II
(II: 10%, I: 4%)

###

target_entity: Human M4 (Homo sapiens)
protocol_notes: mAChR M4 cell-based functional assay (calcium flux, antagonism of EC80 acetylcholine response)
test_conditions: M4/Gqi5/CHO-K1 cells; concentration-dependent decrease of the response elicited by an EC80 concentration of acetylcholine
test_readout: IC50 (nM)

Solved cases (3 shown):
[2H]C([2H])([2H])C(=O)Nc1ccc(-c2ccc(N[C@H]3C[C@@H]4CN(CC5CCOCC5)C[C@@H]4C3)nn2)cc1 (single isomer, unassigned) [Compound B5]; 2.4
[2H]C([2H])([2H])C(=O)Nc1ccccc1-c1ccc(N[C@H]2C[C@@H]3CN(C([2H])([2H])C4CCOCC4)C[C@@H]3C2)nn1 [Compound B4]; 120
CC(=O)Nc1ccc(-c2ccc(N[C@H]3C[C@@H]4CN(Cc5ccccn5)C[C@@H]4C3)nn2)cc1 [Compound A8]; 43

(A) O=C(Nc1cc(F)c(F)c(-c2ccc(N[C@H]3C[C@@H]4CN(CC5CCOCC5)C[C@@H]4C3)nn2)c1)C1(O)CCC1 [Compound A13]
(B) CCN(CC)C(=O)c1ccc(-c2ccc(N[C@H]3C[C@@H]4CN(CC5CCOCC5)C[C@@H]4C3)nn2)cc1 [Compound A24]
(C) [2H]C([2H])(C1CCOCC1)N1C[C@H]2C[C@H](Nc3ccc(-c4ccc(NC(=O)CC)cc4)nn3)C[C@H]2C1 [Compound A40]
Ask: Rank the items in ascending order with respect to IC50. In your reply, arrange the labels in the requested order.
Result: C, B, A

###

target_entity: Human M4 (Homo sapiens, UniProt P08173)
Sequence (P08173 1-479): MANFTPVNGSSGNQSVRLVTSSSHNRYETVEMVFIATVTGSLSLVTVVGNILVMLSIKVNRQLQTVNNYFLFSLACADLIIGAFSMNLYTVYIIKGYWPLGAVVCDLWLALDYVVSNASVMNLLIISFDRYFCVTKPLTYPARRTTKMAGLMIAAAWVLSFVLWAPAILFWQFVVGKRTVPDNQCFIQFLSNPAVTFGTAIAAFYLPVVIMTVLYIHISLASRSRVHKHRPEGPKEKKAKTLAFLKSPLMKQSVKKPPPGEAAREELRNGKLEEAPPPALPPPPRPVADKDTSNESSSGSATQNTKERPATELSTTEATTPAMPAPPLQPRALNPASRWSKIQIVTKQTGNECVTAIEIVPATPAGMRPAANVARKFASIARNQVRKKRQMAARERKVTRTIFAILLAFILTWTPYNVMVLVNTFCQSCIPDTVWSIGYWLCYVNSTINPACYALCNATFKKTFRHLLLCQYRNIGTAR
protocol_notes: mAChR M4 cell-based functional assay (calcium flux, antagonism of EC80 acetylcholine response)
test_conditions: M4/Gqi5/CHO-K1 cells; concentration-dependent decrease of the response elicited by an EC80 concentration of acetylcholine
pIC50: −log10 of the molar value.
test_readout: pIC50

Consider the following illustrative entries.
[2H]C([2H])([2H])C(=O)Nc1cccc(-c2ccc(N[C@H]3C[C@@H]4CN(CC5CCOCC5)C[C@@H]4C3)nn2)c1; 7.92
[2H]C([2H])([2H])NC(=O)c1ccc(-c2ccc(N[C@H]3C[C@@H]4CN(C([2H])([2H])C5CCOCC5)C[C@@H]4C3)nn2)cc1 (single isomer, unassigned); 8.29
O=C(c1ccc(-c2ccc(N[C@H]3C[C@@H]4CN(CC5CCOCC5)C[C@@H]4C3)nn2)cc1)N1CCCC1; 8.41

(I) O=C(Nc1cccc(-c2ccc(N[C@H]3C[C@@H]4CN(CC5CCOCC5)C[C@@H]4C3)nn2)c1)C1CC1
(II) [2H]C([2H])(C1CCOCC1)N1C[C@H]2C[C@H](Nc3ccc(-c4ccccc4NC(=O)CC)nn3)C[C@H]2C1
(III) [2H]C([2H])(C1CCOCC1)N1C[C@H]2C[C@H](Nc3ccc(-c4ccc(C(=O)NCC)cc4)nn3)C[C@H]2C1
Ask: Arrange the 3 compounds from largest to smallest pIC50. Could you list the labels in the order requested?
Result: III, I, II
(III: 8.11, I: 7.89, II: 7.25)

###

target_entity: Human M4 (Homo sapiens, UniProt P08173)
protocol_notes: mAChR M4 cell-based functional assay (calcium flux, antagonism of EC80 acetylcholine response)
test_conditions: M4/Gqi5/CHO-K1 cells; concentration-dependent decrease of the response elicited by an EC80 concentration of acetylcholine
pIC50: −log10 of the molar value.
test_readout: pIC50

Worked cases, answers included:
[2H]C([2H])([C@@H]1CCCOC1)N1C[C@H]2C[C@H](Nc3ccc(-c4cccc(C(=O)NC)c4)nn3)C[C@H]2C1 [Compound A79]; 7.04
CS(=O)(=O)CC(=O)Nc1cccc(-c2ccc(N[C@H]3C[C@@H]4CN(CC5CCOCC5)C[C@@H]4C3)nn2)c1 [Compound A17]; 8.55
[2H]C([2H])([2H])NC(=O)c1cccc(-c2ccc(N[C@H]3C[C@@H]4CN(C([2H])([2H])C5CCOCC5)C[C@@H]4C3)nn2)c1 (single isomer, unassigned) [Compound A49]; 8.26
O=C(Nc1cc(F)c(F)c(-c2ccc(N[C@H]3C[C@@H]4CN(CC5CCOCC5)C[C@@H]4C3)nn2)c1)C(F)F [Compound A15]; 7.82
O=C(c1cc(F)c(F)c(-c2ccc(N[C@H]3C[C@@H]4CN(CC5CCOCC5)C[C@@H]4C3)nn2)c1)N1CC(F)(F)C1 [Compound A20]; 7.00

(1) O=C(Nc1cc(F)c(F)c(-c2ccc(N[C@H]3C[C@@H]4CN(CC5CCOCC5)C[C@@H]4C3)nn2)c1)C1(F)CC1 [Compound A12]
(2) [2H]C([2H])([2H])C(=O)Nc1cccc(-c2ccc(N[C@H]3C[C@@H]4CN(C([2H])([2H])C5CCOCC5)C[C@@H]4C3)nn2)c1 [Compound A62]
(3) [2H]C([2H])(C1CCOCC1)N1C[C@H]2C[C@H](Nc3ccc(-c4ccc(C(=O)NC5CC5)cc4)nn3)C[C@H]2C1 [Compound A34]
Ask: // ascending sort on recorded pIC50 Record the ranking as a list of labels in the requested order.
Result: 1, 2, 3
